System: HL-60
assay.summary: Cytotoxicity against human HL-60 cells after 72 hrs by MTT assay
Format: functional, cell-based
measurement.setup: HL-60, 72 h
assay.metric: IC50 (µg/mL)
API: value field is a number in µg/mL; no unit string.

1. COC(=O)[C@]12CCC(C)(C)C[C@H]1C1=CC[C@@H]3[C@@]4(C)CC[C@H](O[C@@H]5OC[C@H](O)[C@H](O)[C@H]5O[C@@H]5O[C@@H](C)[C@H](O)[C@@H](O[C@@H]6O[C@H](CO)[C@@H](O)[C@H](O)[C@H]6O)[C@H]5O)[C@@](C)(CO)[C@@H]4CC[C@@]3(C)[C@]1(C)CC2
8
2. C[C@@H]1O[C@@H](O[C@H]2[C@H](O[C@H]3CC[C@@]4(C)[C@@H](CC[C@]5(C)[C@@H]4CC=C4[C@@H]6CC(C)(C)CC[C@]6(C(=O)O)CC[C@]45C)[C@]3(C)CO)OC[C@H](O)[C@@H]2O)[C@H](O)[C@H](O)[C@H]1O
7.1

Now take the following compound into account.
Task: Entry C[C@@H]1O[C@@H](O[C@H]2[C@H](O[C@H]3CC[C@]4(C)[C@H]5CC=C6[C@@H]7CC(C)(C)CC[C@]7(C(=O)O)CC[C@@]6(C)[C@]5(C)CC[C@H]4C3(C)C)OC[C@H](O[C@@H]3O[C@H](CO)[C@@H](O)[C@H](O)[C@H]3O)[C@@H]2O)[C@H](O)[C@H](O)[C@H]1O [HEDERACOLCHISIDE A1] has what IC50?
Result: 2.3

* * *

System: HL-60
assay.summary: Cytotoxicity against human HL-60 cells after 72 hrs by MTT assay
Format: functional, cell-based
measurement.setup: HL-60, 72 h
// values below are reported IC50
Please reply with the bare figure in µg/mL and do not write the unit itself.

1) C[C@@H]1O[C@@H](O[C@H]2[C@H](O[C@H]3CC[C@@]4(C)[C@@H](CC[C@]5(C)[C@@H]4CC=C4[C@@H]6CC(C)(C)CC[C@]6(C(=O)O)CC[C@]45C)[C@]3(C)CO)OC[C@H](O)[C@@H]2O)[C@H](O)[C@H](O[C@@H]2O[C@H](CO)[C@@H](O)[C@H](O)[C@H]2O)[C@H]1O
7.8
2) C[C@@H]1O[C@@H](O[C@H]2[C@H](O[C@H]3CC[C@]4(C)[C@H]5CC=C6[C@@H]7CC(C)(C)CC[C@]7(C(=O)O)CC[C@@]6(C)[C@]5(C)CC[C@H]4C3(C)C)OC[C@H](O)[C@@H]2O)[C@H](O)[C@H](O)[C@H]1O
4.4

Next molecule, IC50 to be filled in.
Task: I am curious: what IC50 value has been reported for "C[C@@H]1O[C@@H](O[C@H]2[C@H](O[C@H]3CC[C@]4(C)[C@H]5CC=C6[C@@H]7CC(C)(C)CC[C@]7(C(=O)O)CC[C@@]6(C)[C@]5(C)CC[C@H]4C3(C)C)OC[C@H](O[C@@H]3O[C@H](CO)[C@@H](O)[C@H](O)[C@H]3O)[C@@H]2O)[C@H](O)[C@H](O[C@@H]2O[C@H](CO)[C@@H](O[C@@H]3O[C@H](CO)[C@@H](O)[C@H](O)[C@H]3O)[C@H](O)[C@H]2O)[C@H]1O" ?
Result: 2.7

* * *

Consider the following compounds and their measured IC50 readings.
Test system: HL-60
assay.summary: Cytotoxicity against human HL-60 cells after 72 hrs by MTT assay
Type: functional, cell-based
measurement.setup: HL-60, 72 h
Record the value in mg/L, omitting the unit from your answer.

1) COc1cc([C@@H]2c3cc4c(cc3[C@@H](O[C@@H]3O[C@@H]5CO[C@@H](C)O[C@H]5[C@H](O)[C@H]3O)[C@H]3COC(=O)[C@H]23)OCO4)cc(OC)c1O [ETOPOSIDE]
0.3
2) C[C@@H]1O[C@@H](O[C@H]2[C@H](O[C@H]3CC[C@]4(C)[C@H]5CC=C6[C@@H]7CC(C)(C)CC[C@]7(C(=O)O)CC[C@@]6(C)[C@]5(C)CC[C@H]4C3(C)C)OC[C@H](O)[C@@H]2O)[C@H](O)[C@H](O[C@@H]2O[C@H](CO)[C@@H](O[C@@H]3O[C@H](CO)[C@@H](O)[C@H](O)[C@H]3O)[C@H](O)[C@H]2O)[C@H]1O
2.6

Task: Entry C[C@@H]1O[C@@H](O[C@H]2[C@H](O[C@H]3CC[C@@]4(C)[C@@H](CC[C@]5(C)[C@@H]4CC=C4[C@@H]6CC(C)(C)CC[C@]6(C(=O)O)CC[C@]45C)[C@]3(C)CO)OC[C@H](O[C@@H]3O[C@H](CO)[C@@H](O)[C@H](O)[C@H]3O)[C@@H]2O)[C@H](O)[C@H](O)[C@H]1O [HEDERACOLCHISIDE A] has what IC50?
Result: 3.8

Task: Given "COC(=O)[C@]12CCC(C)(C)C[C@H]1C1=CC[C@@H]3[C@@]4(C)CC[C@H](O[C@@H]5OC[C@H](O)[C@H](O)[C@H]5O[C@@H]5O[C@@H](C)[C@H](O)[C@@H](O[C@@H]6O[C@H](CO)[C@@H](O[C@@H]7O[C@H](CO)[C@@H](O)[C@H](O)[C@H]7O)[C@H](O)[C@H]6O)[C@H]5O)C(C)(C)[C@@H]4CC[C@@]3(C)[C@]1(C)CC2" , state its recorded IC50.
Result: 7.8

Task: Query (compound): "COc1cc([C@@H]2c3cc4c(c(O)c3C[C@H]3COC(=O)[C@@H]32)OCO4)cc(OC)c1OC" ; field requested: IC50
Result: 0.0052

Task: // query IC50 value for entry "C[C@@H]1O[C@@H](O[C@H]2[C@H](O[C@H]3CC[C@]4(C)[C@H]5CC=C6[C@@H]7CC(C)(C)CC[C@]7(C(=O)O)CC[C@@]6(C)[C@]5(C)CC[C@H]4C3(C)C)OC[C@H](O)[C@@H]2O)[C@H](O)[C@H](O[C@@H]2O[C@H](CO)[C@@H](O)[C@H](O)[C@H]2O)[C@H]1O"
Result: 3.6
